- Target Or Test System: h-GABA-A α5β3γ2 (Homo sapiens, UniProt P18507+P31644)
- Protocol Description: Two-electrode voltage clamp electrophysiology in Xenopus laevis oocytes expressing GABAA receptors, modulation of GABA EC20 current
- Format: cell-based
- Parameters: host or cells: Xenopus laevis oocytes micro-injected with RNA transcripts of the subunits
- Condition: % modulation of GABA EC20 = 100*(Fold increase-1); Table 1
Catalogue of Efficacy (GABA) % readings, one per entry.
Property: Efficacy (GABA) % (%)

>>> observed_value("O=C(C1CC1)N1CCN(c2cnn(Cc3c(-c4ccc(Cl)cn4)noc3C3CC3)c(=O)c2)CC1")
266
>>> observed_value("COc1cc(-c2cnn(Cc3c(-c4ccc(C)nc4)noc3C)c(=O)c2)cnc1OC")
133
>>> observed_value("CO[C@@H]1CN(c2cnn(Cc3c(-c4ccc(C)nc4)noc3C)c(=O)c2)[C@@H]1C")
152
>>> observed_value("Cc1onc(-c2ccc(Cl)nc2)c1Cn1ncc(N2C[C@@H](O)[C@H]2C)cc1=O")
68
>>> observed_value("Cc1onc(-c2ccc(F)cc2)c1Cn1ncc(N2CCC(n3c(C)nnc3C)CC2)cc1=O")
85
>>> observed_value("Cc1ccc(-c2noc(C)c2Cn2ncc(N3CC4(CCC(C)(C)O4)C3)cc2=O)nn1")
105
>>> observed_value("Cc1onc(-c2ccc(Cl)nc2)c1Cn1ncc(N2CC3(CCOCC3)C2)cc1=O")
108
>>> observed_value("Cc1ccc(-c2noc(C)c2Cn2ncc(N3CC4(CCC(F)CO4)C3)cc2=O)cn1 (single isomer, unassigned) [Example 276]")
102
>>> observed_value("COc1ccc(-c2cnn(Cc3c(-c4ccc(C)nc4)noc3C)c(=O)c2)cc1F")
133
>>> observed_value("Cc1ccc(-c2noc(C)c2Cn2ncc(N3CC4(CCCCO4)C3)cc2=O)nn1")
77
>>> observed_value("COc1ccc(-c2cnn(Cc3c(-c4ccc(C)nc4)noc3C)c(=O)c2)cc1OC")
91
>>> observed_value("Cc1ccc(-c2noc(C)c2Cn2ncc(-c3ccc(F)cc3)cc2=O)cn1")
71
>>> observed_value("Cc1ccc(-c2noc(C)c2Cn2ncc(N3CCC(n4ccnc4C)CC3)cc2=O)cn1")
142
>>> observed_value("Cc1ccc(-c2noc(C)c2Cn2ncc(-c3ccc(OC(F)F)nc3)cc2=O)cn1")
89
>>> observed_value("Cc1ccc(-c2noc(C)c2Cn2ncc(N3CC(Oc4ccnc(Cl)c4)C3)cc2=O)cn1")
170
>>> observed_value("Cc1ccc(-c2noc(C)c2Cn2ncc(N3CCC4(CC3)CC(F)CCO4)cc2=O)nn1 (single isomer, unassigned) [Example 327]")
122
>>> observed_value("Cc1onc(-c2ccc(Cl)nc2)c1Cn1ncc(N2CC3(C[C@@H](F)CO3)C2)cc1=O")
127
>>> observed_value("Cc1ccc(-c2noc(C)c2Cn2ncc(N3CCNC4(CC4)C3)cc2=O)cn1")
132
>>> observed_value("CCOC1CN(c2cnn(Cc3c(-c4ccc(C)nc4)noc3C)c(=O)c2)C1")
134
>>> observed_value("COC1CN(c2cnn(Cc3c(-c4ccc(C)nc4)noc3C)c(=O)c2)C1")
134
>>> observed_value("Cc1onc(-c2ccc(Cl)nc2)c1Cn1ncc(N2CCN3C(=O)CCC3C2)cc1=O (centres unmarked)")
215
>>> observed_value("Cc1onc(-c2ccc(Cl)nc2)c1Cn1ncc(N2CC(OCC(F)(F)F)C2)cc1=O")
147
>>> observed_value("Cc1ccc(-c2noc(C)c2Cn2ncc(-c3ccnc(OC4CCOC4)c3)cc2=O)cn1 (centres unmarked)")
121
>>> observed_value("Cc1ccc(-c2noc(C)c2Cn2ncc(N3CCN(C(=O)C4CC4)CC3)cc2=O)cn1")
153
>>> observed_value("Cc1ccc(-c2noc(C)c2Cn2ncc(N3CC(O)C3)cc2=O)cn1")
72
>>> observed_value("Cc1onc(-c2ccc(Cl)nc2)c1Cn1ncc(N2CC(OC(C)C(F)(F)F)C2)cc1=O (single isomer, unassigned) [Example 266]")
136
>>> observed_value("Cc1ccc(-c2noc(C)c2Cn2ncc(N3CCC(O)CC3)cc2=O)cn1")
155
>>> observed_value("COc1ccc(-c2cnn(Cc3c(-c4ccc(C)nc4)noc3C)c(=O)c2)nc1")
89
>>> observed_value("Cc1ccc(-c2noc(C)c2Cn2ncc(N3CC(OC(C)(C)C(F)(F)F)C3)cc2=O)nn1")
93
>>> observed_value("Cc1ccc(-c2noc(C)c2Cn2ncc(N3CC4(CC(C)CCO4)C3)cc2=O)nn1 (single isomer, unassigned) [Example 318]")
111
>>> observed_value("Cc1ccc(-c2noc(C)c2Cn2ncc(-c3cc(C)nc(C)c3)cc2=O)cn1")
221
>>> observed_value("CCc1onc(-c2ccc(C)nn2)c1Cn1ncc(N2CC3(CCC(F)CO3)C2)cc1=O (single isomer, unassigned)")
178

---

- Target Or Test System: h-GABA-A α5β3γ2 (Homo sapiens, UniProt P18507+P31644)
- Protocol Description: [3H]flumazenil competition binding assay, membranes of HEK293 cells expressing GABAA receptors
- Condition: displacement of [3H]-Flumazenil 0.5 nM, HEK293 cells expressing human receptors, mean of two determinations; Table 1
pKi: −log10 of the molar value.
Property: pKi

>>> observed_value("Cc1ccc(-c2noc(C)c2Cn2ncc(-c3ccc(OC(F)F)nc3)cc2=O)cn1")
7.69
>>> observed_value("Cc1ccc(-c2noc(C)c2Cn2ncc(N3CC(Oc4ccnc(Cl)c4)C3)cc2=O)cn1")
7.92
>>> observed_value("COC1CN(c2cnn(Cc3c(-c4cc(C)on4)noc3C)c(=O)c2)C1")
8.07
>>> observed_value("CC(=O)N(C)[C@@H]1CCN(c2cnn(Cc3c(-c4ccc(C)nc4)noc3C)c(=O)c2)C1")
7.58
>>> observed_value("Cc1onc(-c2ccc(Cl)nc2)c1Cn1ncc(N2CCN(c3cccnc3)CC2)cc1=O")
8.10
>>> observed_value("Cc1ccc(-c2noc(C)c2Cn2ncc(N3CC4(CCC(F)CO4)C3)cc2=O)cn1 (single isomer, unassigned) [Example 275]")
8.34
>>> observed_value("Cc1ccc(-c2noc(C)c2Cn2ncc(N3CC[C@@H](C)C3)cc2=O)cn1")
8.57
>>> observed_value("Cc1ccc(-c2noc(C)c2Cn2ncc(N3CC4(CCCCO4)C3)cc2=O)cn1")
7.80

---

- Target Or Test System: h-GABA-A α5β3γ2 (Homo sapiens, UniProt P18507+P31644)
- Protocol Description: [3H]flumazenil competition binding assay, membranes of HEK293 cells expressing GABAA receptors
- Condition: reference compounds, Table 2
Property: Ki (nM)

>>> observed_value("Cc1onc(-c2ccccc2)c1COc1ccc(C(=O)N2CCOCC2)nn1 [RO-096, reference compound]")
26
>>> observed_value("Cc1cc(C)n(-c2ccc(OCc3c(-c4ccccc4)noc3C)nn2)n1 [RO-039, reference compound]")
5.15
>>> observed_value("Cc1onc(-c2ccccc2)c1COc1ccc(N2CCCC2)nn1 [RO-035, reference compound]")
10.5
>>> observed_value("Cc1onc(-c2ccccc2)c1COc1ccc(N2CCOCC2)nn1 [RO-036, reference compound]")
9.45

---

- Target Or Test System: h-GABA-A α5β3γ2 (Homo sapiens, UniProt P18507+P31644)
- Protocol Description: Two-electrode voltage clamp electrophysiology in Xenopus laevis oocytes expressing GABAA receptors, modulation of GABA EC20 current
- Format: cell-based
- Set-up: host or cells: Xenopus laevis oocytes micro-injected with RNA transcripts of the subunits
- Condition: reference compounds, % modulation of GABA EC20, Table 2
Property: Efficacy (GABA) % (%)

>>> observed_value("Cc1onc(-c2ccccc2)c1COc1ccc(C(=O)N2CCOCC2)nn1 [RO-096, reference compound]")
"−16"
>>> observed_value("Cc1onc(-c2ccccc2)c1COc1ccc(N2CCCC2)nn1 [RO-035, reference compound]")
"−35"
>>> observed_value("Cc1onc(-c2ccc(Cl)cn2)c1COc1ccc(C(=O)N2CCOCC2)cn1 [RO-309, reference compound]")
"−17"
>>> observed_value("Cc1onc(-c2ccccc2)c1COc1ccc(N2CCOCC2)nn1 [RO-036, reference compound]")
"−28"
>>> observed_value("Cc1cc(C)n(-c2ccc(OCc3c(-c4ccccc4)noc3C)nn2)n1 [RO-039, reference compound]")
"−17"

---

Catalogue of Ki readings, one per entry.
- Target Or Test System: h-GABA-A α5β3γ2 (Homo sapiens, UniProt P18507+P31644)
- Protocol Description: [3H]flumazenil competition binding assay, membranes of HEK293 cells expressing GABAA receptors
- Condition: displacement of [3H]-Flumazenil 0.5 nM, HEK293 cells expressing human receptors, mean of two determinations; Table 1
Property: Ki (nM)

>>> observed_value("Cc1ccc(-c2noc(C)c2Cn2ncc(N3CCC4(CCOCC4)CC3)cc2=O)cn1")
13
>>> observed_value("Cc1ccc(-c2noc(C)c2Cn2ncc(-c3cnn(C(F)F)c3)cc2=O)cn1")
23.7
>>> observed_value("Cc1ccc(-c2noc(C)c2Cn2ncc(N3CCNC4(CC4)C3)cc2=O)cn1")
0.4
>>> observed_value("Cc1ccc(-c2noc(C)c2Cn2ncc(N3CC(OCC(F)(F)F)C3)cc2=O)cn1")
9.6
>>> observed_value("Cc1ccc(-c2noc(C)c2Cn2ncc(N3CC4(C[C@@H](O)CO4)C3)cc2=O)cn1")
19.5
>>> observed_value("Cc1onc(-c2ccc(Cl)nc2)c1Cn1ncc(N2CC3(C[C@H](C)CCO3)C2)cc1=O")
71.1
>>> observed_value("Cc1onc(-c2ccc(C(F)(F)F)nc2)c1Cn1ncc(N2CCN(C(=O)C3(C)CC3)CC2)cc1=O")
43.3
>>> observed_value("COc1ncccc1N1CCN(c2cnn(Cc3c(-c4ccc(C)nc4)noc3C)c(=O)c2)CC1")
3.2
>>> observed_value("C[C@@H]1CN(c2cnn(Cc3conc3-c3ccc(C(F)(F)F)nc3)c(=O)c2)C[C@H](C)O1")
40.2
>>> observed_value("CCc1nccn1C1CCN(c2cnn(Cc3c(-c4ccc(C)nc4)noc3C)c(=O)c2)CC1")
2.2
>>> observed_value("CCO[C@H]1COC2(C1)CN(c1cnn(Cc3c(-c4ccc(C)nc4)noc3C)c(=O)c1)C2")
28.1
>>> observed_value("Cc1ccc(-c2noc(C)c2Cn2ncc(-c3ccc(OC(F)(F)F)cc3)cc2=O)cn1")
24
>>> observed_value("Cc1onc(-c2ccc(Cl)nc2)c1Cn1ncc(N2CC3(CCC(F)CO3)C2)cc1=O (single isomer, unassigned) [Example 297]")
10.7
>>> observed_value("Cc1onc(-c2ccc(Cl)nc2)c1Cn1ncc(N2CC(OC3CCC3)C2)cc1=O")
31
>>> observed_value("Cc1ccc(-c2noc(C)c2Cn2ncc(N3CC4(CCCCO4)C3)cc2=O)nn1")
2.8
>>> observed_value("Cc1ccc(-c2noc(C)c2Cn2ncc(N3CC(OC(C)C)C3)cc2=O)cn1")
38
